Numbers sourced from the supplement of paper PMC7724964.

assayed.system: RPA1 2-121 Rep-A_N (domain begin residue: 2, domain end residue: 121), P27694
Sequence (P27694 whole entry): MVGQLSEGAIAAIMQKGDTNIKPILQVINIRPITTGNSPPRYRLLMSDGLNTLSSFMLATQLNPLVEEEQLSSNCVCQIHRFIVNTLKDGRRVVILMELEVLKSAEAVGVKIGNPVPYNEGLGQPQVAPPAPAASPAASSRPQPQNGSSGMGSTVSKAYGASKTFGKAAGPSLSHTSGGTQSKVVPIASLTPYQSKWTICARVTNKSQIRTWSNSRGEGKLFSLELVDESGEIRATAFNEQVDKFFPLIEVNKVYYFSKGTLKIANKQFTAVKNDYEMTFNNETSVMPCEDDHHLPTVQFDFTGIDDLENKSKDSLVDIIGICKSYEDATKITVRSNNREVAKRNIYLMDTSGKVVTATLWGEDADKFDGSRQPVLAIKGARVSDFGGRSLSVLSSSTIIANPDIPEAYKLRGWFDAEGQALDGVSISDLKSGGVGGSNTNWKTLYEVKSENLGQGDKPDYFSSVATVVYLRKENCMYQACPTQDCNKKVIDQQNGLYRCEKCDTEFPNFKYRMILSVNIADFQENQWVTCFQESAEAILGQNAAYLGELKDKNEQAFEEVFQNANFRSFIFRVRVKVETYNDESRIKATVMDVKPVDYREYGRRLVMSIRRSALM
method: phage ELISA signal ratio (GST-PRM binding over GST background); higher = stronger binding of peptide-phage to the PRM
assay.endpoint: phage ELISA signal ratio

- binder: "VSWWDDGLVYDWMSEF"
  assay.endpoint: "phage ELISA signal ratio"
  observed.value: 16.5
- binder: "YYVLDSEMETIWQSIL"
  assay.endpoint: "phage ELISA signal ratio"
  observed.value: 15.3
- binder: "YVTDLEMIETWNKFIN"
  assay.endpoint: "phage ELISA signal ratio"
  observed.value: 16.4
- binder: "YIHDWEMFEHWENLWG"
  assay.endpoint: "phage ELISA signal ratio"
  observed.value: 9.27
- binder: "YIQDWEMMDVWNTLVG"
  assay.endpoint: "phage ELISA signal ratio"
  observed.value: 18
- binder: "WELSDYTLIQAYDQIM"
  assay.endpoint: "phage ELISA signal ratio"
  observed.value: 13.8
- binder: "EEMPWYFIEDWEMEMY"
  assay.endpoint: "phage ELISA signal ratio"
  observed.value: 10.6
